READOUT_TYPE: Ki (nM)
All answers are understood in nM, so give the number only.

I'm curious: which Ki was measured for C[C@@]12CCCCC[C@@H](Cc3ccc(O)cc31)[C@@H]2N [Dezocine] tested on rat δ-opioid receptor (Rattus norvegicus, UniProt P33533)? 399

###

READOUT_TYPE: pKi
The meaning of pKi here: minus log10 of the concentration in molar units.

I'm curious: which pKi was measured for `C[C@@]12CCCCC[C@@H](Cc3ccc(O)cc31)[C@@H]2N` tested on human κ-opioid receptor (Homo sapiens)? 7.66
